Data credit: patent US11083717B2

Would you mind telling me the reported concentrations at which not toxic, human fibroblast cytotoxicity testing of each entry?
Tested on: human fibroblast
protocol_summary: in vitro
study_conditions: human

Task: Dear colleague, I am looking for the recorded concentrations at which not toxic, human fibroblast cytotoxicity testing of the following compound: CC(C)NC(=O)Nc1ccc(Oc2nc3ccc(Cl)cc3s2)c[n+]1[O-] [NZ-391]
Output: ≥ 100 µM

Task: Dear colleague, I am looking for the recorded concentrations at which not toxic, human fibroblast cytotoxicity testing of the following compound: CNC(=O)Cc1c(F)cc(Oc2cnc3cc(Cl)ccc3n2)cc1F [NZ-460]
Output: ≥ 100 µM

Task: Dear colleague, I am looking for the recorded concentrations at which not toxic, human fibroblast cytotoxicity testing of the following compound: O=C(Cc1ccc(Oc2nc3cc(F)c(F)cc3s2)cc1)N1CCCCC1 [NZ-481]
Output: ≥ 100 µM

Task: Dear colleague, I am looking for the recorded concentrations at which not toxic, human fibroblast cytotoxicity testing of the following compound: CC(C)NC(=O)Cc1ccc(O)cc1Oc1nc2ccc(F)cc2s1 [NZ-406]
Output: ≥ 100 µM

Task: Dear colleague, I am looking for the recorded concentrations at which not toxic, human fibroblast cytotoxicity testing of the following compound: CCOC(=O)[C@@H](C)Oc1ccc(Oc2nc3ccc(F)cc3s2)cc1 [NZ-251]
Output: ≥ 100 µM

Task: Dear colleague, I am looking for the recorded concentrations at which not toxic, human fibroblast cytotoxicity testing of the following compound: CC(C)NC(=O)Nc1ccc(Oc2nc3ccc(C(F)(F)F)cc3s2)cc1 [NZ-379]
Output: ≥ 100 µM

Task: Dear colleague, I am looking for the recorded concentrations at which not toxic, human fibroblast cytotoxicity testing of the following compound: CC(C(=O)N1CCN(C)CC1)c1ccc(Oc2nc3cc(F)c(F)cc3s2)cc1 (centres unmarked) [NZ-465]
Output: ≥ 100 µM

Task: Dear colleague, I am looking for the recorded concentrations at which not toxic, human fibroblast cytotoxicity testing of the following compound: O=C(O)Cc1ccc(Oc2nc3ccc(Cl)cc3s2)cc1 [NZ-287]
Output: ≥ 100 µM

----------
Tested on: S. cerevisiae
protocol_summary: in vitro
study_conditions: Saccharomyces cerevisiae
Would you mind telling me the reported concentrations at which not toxic, S. cerevisiae cytotoxicity testing of each entry?

Task: Dear colleague, I am looking for the recorded concentrations at which not toxic, S. cerevisiae cytotoxicity testing of the following compound: CN(C)C(=O)Nc1ccc(Oc2nc3ccc(Cl)cc3s2)cc1
Output: 50 to 100 µM

Task: Dear colleague, I am looking for the recorded concentrations at which not toxic, S. cerevisiae cytotoxicity testing of the following compound: CN1CCN(C(=O)Cc2ccc(Oc3nc4ccc(Cl)cc4s3)cc2)CC1
Output: ≥ 100 µM

Task: Dear colleague, I am looking for the recorded concentrations at which not toxic, S. cerevisiae cytotoxicity testing of the following compound: CC(C)NC(=O)Nc1ccc(Oc2nc3ccc(Br)cc3s2)cc1
Output: ≥ 100 µM

Task: Dear colleague, I am looking for the recorded concentrations at which not toxic, S. cerevisiae cytotoxicity testing of the following compound: CN1CCN(C(=O)Cc2ccc(Oc3nc4ccc(F)cc4s3)cc2)CC1
Output: ≥ 100 µM

Task: Dear colleague, I am looking for the recorded concentrations at which not toxic, S. cerevisiae cytotoxicity testing of the following compound: CC(C(=O)N1CCN(C)CC1)c1ccc(Oc2nc3ccc(Cl)cc3s2)cc1 (stereo not shown)
Output: 25 to 50 µM

Task: Dear colleague, I am looking for the recorded concentrations at which not toxic, S. cerevisiae cytotoxicity testing of the following compound: CNC(=O)Cc1ccc(Oc2nc3ccc(Cl)cc3s2)cc1OC
Output: ≥ 100 µM

Task: Dear colleague, I am looking for the recorded concentrations at which not toxic, S. cerevisiae cytotoxicity testing of the following compound: CONC(=O)c1cc2ccc(Oc3ccccc3)cc2oc1=O
Output: ≥ 100 µM

Task: Dear colleague, I am looking for the recorded concentrations at which not toxic, S. cerevisiae cytotoxicity testing of the following compound: NCc1ccc(Oc2nc3ccc(Cl)cc3s2)cc1
Output: 25 to 50 µM

Task: Dear colleague, I am looking for the recorded concentrations at which not toxic, S. cerevisiae cytotoxicity testing of the following compound: CONC(=O)Cc1ccc(Oc2cnc3cc(Cl)ccc3n2)cc1
Output: ≥ 100 µM

Task: Dear colleague, I am looking for the recorded concentrations at which not toxic, S. cerevisiae cytotoxicity testing of the following compound: O=C(O)Cc1ccc(Oc2nc3ccc(F)cc3s2)cc1
Output: ≥ 100 µM
